// reported one-hybrid fitness for binding NBS DNA per item
B1: Caulobacter ParB omega fusion; a variant is named by its letters at X, in order, B8GW30 (parent)
chain: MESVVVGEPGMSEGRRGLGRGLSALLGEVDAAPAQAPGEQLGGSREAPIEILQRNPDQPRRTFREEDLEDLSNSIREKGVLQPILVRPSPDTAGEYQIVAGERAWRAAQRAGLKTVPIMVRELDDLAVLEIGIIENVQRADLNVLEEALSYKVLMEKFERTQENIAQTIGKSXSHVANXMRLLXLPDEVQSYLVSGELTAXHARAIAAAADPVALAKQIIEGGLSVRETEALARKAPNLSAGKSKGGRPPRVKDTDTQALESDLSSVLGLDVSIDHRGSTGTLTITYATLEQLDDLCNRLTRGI

Variants of: B1
Experiment: one-hybrid fitness for binding NBS DNA (the Noc-binding site; scaled: cognate 1, non-cognate 0); higher = stronger binding
Details: with NBS DNA site
Whole data set: some 81,000 sequences, median “one-hybrid fitness for binding NBS DNA” near -0.1, cut for the highest 2% near 0.36. Only a selection was taken, and the highest values are over-represented in it overall.

Some variants with recorded one-hybrid fitness for binding NBS DNA:
alteration	test_result
GHDG	≤ 0.2
QTVL	≤ 0.2
QTDP	≤ 0.2

Shifting focus to the variant that follows.
Lookup result for FDNG ; measured one-hybrid fitness for binding NBS DNA: ≤ 0.2
